observed_property: melting point

Known results for molecules:
- CCCCNC(=O)Nc1ccnc2cc(-c3cnn(C)c3)cnc12: 219 to 220 °C
- Cn1cc(-c2cnc3c(NC(=O)NCCCCc4ccccc4)ccnc3c2)cn1: 185 to 186 °C

INPUT: State the recorded melting point for this entry: "COc1cc(-c2cnc3c(NC(=O)NC4CC4)ccnc3c2)ccc1O"
OUTPUT: 235 to 236 °C

###

- assay_target: Erk2 (Homo sapiens, UniProt P28482)
- Construct: in some cases as full-length kinases, in some cases as truncated fragments
- Sequence (P28482 whole entry, the tested form may be a part): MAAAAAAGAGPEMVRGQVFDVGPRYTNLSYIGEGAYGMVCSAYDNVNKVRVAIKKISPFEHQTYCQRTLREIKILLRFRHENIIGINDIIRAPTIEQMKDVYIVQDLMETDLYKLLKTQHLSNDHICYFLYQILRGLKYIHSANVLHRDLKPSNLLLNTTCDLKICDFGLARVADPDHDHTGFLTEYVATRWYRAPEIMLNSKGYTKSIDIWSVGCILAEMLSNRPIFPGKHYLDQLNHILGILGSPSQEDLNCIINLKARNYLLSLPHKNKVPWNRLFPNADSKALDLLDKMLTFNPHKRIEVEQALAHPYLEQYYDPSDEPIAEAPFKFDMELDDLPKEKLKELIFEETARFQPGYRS
- test_description: Cell-free kinase assay (ALPHA technology), Erk2
- test_conditions: at 10 μM ATP
observed_property: IC50

* Cn1cc(-c2cnc3ccc(NC(=O)NC(C)(C)C)nc3c2)cn1 | 0.429 µM

INPUT: State the recorded IC50 for this entry: "CC(C)(C)NC(=O)Nc1ccnc2cc(-c3cc(Cl)c(O)c(Cl)c3)cnc12"
OUTPUT: > 100 µM

INPUT: State the recorded IC50 for this entry: "CCNC(=O)Nc1ccnc2cc(-c3ccc(OC)c(OC)c3)cnc12"
OUTPUT: > 100 µM

INPUT: State the recorded IC50 for this entry: "CCNC(=O)Nc1ccnc2cc(-c3cc(C)c(O)c(C)c3)cnc12"
OUTPUT: > 31.6 µM

INPUT: State the recorded IC50 for this entry: "COc1ccc(-c2cnc3ccc(NC(=O)NC(C)(C)C)nc3c2)cc1OC"
OUTPUT: 1.72 µM

INPUT: State the recorded IC50 for this entry: "Cn1cc(-c2cnc3c(NC(=O)NC4CC(F)(F)C4)ccnc3c2)cn1"
OUTPUT: > 100 µM

INPUT: State the recorded IC50 for this entry: "CCCCCCNC(=O)Nc1ccnc2cc(-c3cnn(C)c3)cnc12"
OUTPUT: > 100 µM

###

# maps each entry to its pIC50
- assay_target: cRaf-Mek1-Erk2 (Homo sapiens, UniProt P04049+P28482+Q02750)
- Sequence (P04049 whole entry): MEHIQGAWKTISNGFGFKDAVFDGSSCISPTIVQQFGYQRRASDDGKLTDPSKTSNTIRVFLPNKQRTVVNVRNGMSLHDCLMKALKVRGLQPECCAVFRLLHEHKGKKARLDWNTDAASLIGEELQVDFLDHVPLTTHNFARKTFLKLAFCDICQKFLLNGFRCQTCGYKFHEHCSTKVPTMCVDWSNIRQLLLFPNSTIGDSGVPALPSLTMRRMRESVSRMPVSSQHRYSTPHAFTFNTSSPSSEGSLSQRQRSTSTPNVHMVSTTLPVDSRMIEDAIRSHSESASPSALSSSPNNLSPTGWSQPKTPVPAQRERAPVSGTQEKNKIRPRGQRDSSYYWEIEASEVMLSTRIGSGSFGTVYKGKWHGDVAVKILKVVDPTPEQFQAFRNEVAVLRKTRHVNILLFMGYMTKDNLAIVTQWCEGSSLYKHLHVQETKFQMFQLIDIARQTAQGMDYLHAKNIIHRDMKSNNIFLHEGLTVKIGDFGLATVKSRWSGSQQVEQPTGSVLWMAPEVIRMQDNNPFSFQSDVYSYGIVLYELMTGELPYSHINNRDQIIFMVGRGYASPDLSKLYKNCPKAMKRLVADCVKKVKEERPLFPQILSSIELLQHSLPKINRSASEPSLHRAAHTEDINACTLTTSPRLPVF
- Sequence (Q02750 whole entry): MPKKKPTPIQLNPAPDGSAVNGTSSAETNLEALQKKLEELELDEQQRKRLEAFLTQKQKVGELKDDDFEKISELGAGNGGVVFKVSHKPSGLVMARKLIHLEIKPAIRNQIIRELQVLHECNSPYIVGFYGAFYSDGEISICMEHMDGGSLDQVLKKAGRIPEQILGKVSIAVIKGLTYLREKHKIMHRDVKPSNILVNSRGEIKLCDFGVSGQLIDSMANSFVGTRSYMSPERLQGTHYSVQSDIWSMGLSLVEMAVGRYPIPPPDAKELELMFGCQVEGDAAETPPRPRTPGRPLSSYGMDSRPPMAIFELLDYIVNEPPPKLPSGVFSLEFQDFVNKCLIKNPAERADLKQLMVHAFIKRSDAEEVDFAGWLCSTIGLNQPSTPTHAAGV
- Sequence (P28482 2-360): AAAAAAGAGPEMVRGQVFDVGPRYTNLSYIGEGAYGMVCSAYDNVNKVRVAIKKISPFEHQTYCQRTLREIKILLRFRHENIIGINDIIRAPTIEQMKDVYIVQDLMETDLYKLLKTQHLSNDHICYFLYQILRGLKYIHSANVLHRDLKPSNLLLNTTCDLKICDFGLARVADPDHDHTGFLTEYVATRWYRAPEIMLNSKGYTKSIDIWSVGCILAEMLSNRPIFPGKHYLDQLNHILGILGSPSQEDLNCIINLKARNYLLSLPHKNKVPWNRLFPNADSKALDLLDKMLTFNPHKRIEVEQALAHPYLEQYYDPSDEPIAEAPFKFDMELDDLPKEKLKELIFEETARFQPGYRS
- test_conditions: read-out: IC50 cRaf-Mek-Erk; at 10 μM ATP
Please treat pIC50 as minus the base-10 logarithm of the molar concentration.

* O=C(Nc1ccnc2cc(-c3ccnc(F)c3)cnc12)NC1CC1 | 4.99

INPUT: State the recorded pIC50 for this entry: "CCNC(=O)Nc1ccnc2cc(-c3cc(Cl)c(O)c(Cl)c3)cnc12"
OUTPUT: 5.11

INPUT: State the recorded pIC50 for this entry: "Cn1cc(-c2cnc3c(NC(=O)NC(C)(C)C)ccnc3c2)cn1"
OUTPUT: 4.90

INPUT: State the recorded pIC50 for this entry: "CC(C)(C)NC(=O)Nc1ccnc2cc(-c3cc(Cl)c(O)c(Cl)c3)cnc12"
OUTPUT: 4.96

INPUT: State the recorded pIC50 for this entry: "CCCNC(=O)Nc1ccnc2cc(-c3cnn(C)c3)cnc12"
OUTPUT: 5.01

INPUT: State the recorded pIC50 for this entry: "Cn1cc(-c2cnc3c(NC(=O)NC4CC4)ccnc3c2)cn1"
OUTPUT: 5.13

INPUT: State the recorded pIC50 for this entry: "CCCCNC(=O)Nc1ccnc2cc(-c3cnn(C)c3)cnc12"
OUTPUT: 4.89

###

- assay_target: Aurora-B (Homo sapiens)
- Construct: in some cases as full-length kinases, in some cases as truncated fragments; purchased Upstate/Millipore #14-835
- Sequence (Q96GD4 whole entry, the tested form may be a part): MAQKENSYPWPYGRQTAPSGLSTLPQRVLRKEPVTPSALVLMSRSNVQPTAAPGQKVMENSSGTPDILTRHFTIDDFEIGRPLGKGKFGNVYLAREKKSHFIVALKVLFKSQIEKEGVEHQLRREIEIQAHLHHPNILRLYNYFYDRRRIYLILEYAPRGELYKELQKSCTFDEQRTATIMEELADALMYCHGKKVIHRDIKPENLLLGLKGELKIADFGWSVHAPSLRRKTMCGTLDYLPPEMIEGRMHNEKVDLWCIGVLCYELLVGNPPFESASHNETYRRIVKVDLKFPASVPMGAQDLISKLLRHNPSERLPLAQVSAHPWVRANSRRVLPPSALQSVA
- test_description: Cell-free kinase assay (ALPHA technology), Aurora-B
- Type: biochemical
- test_conditions: at 10 μM ATP; read-out: IC50 Aurora-B
observed_property: IC50 (nM)
Entry rule: numbers only, all in nM.

Known results for compounds:
- COc1cc(-c2cnc3c(NC(=O)NC4CC4)ccnc3c2)ccc1O: 108
- O=C(Nc1ccnc2cc(-c3cn[nH]c3)cnc12)NC1CC1: 85
- Cn1cc(-c2cnc3ccc(NC(=O)NCCc4ccccc4)nc3c2)cn1: 171
- CC(C)NC(=O)Nc1ccnc2cc(-c3cnn(C)c3)cnc12: 137
- CCNC(=O)Nc1ccc2ncc(-c3ccc(OC)c(OC)c3)cc2n1: 624
- O=C(Nc1ccnc2cc(-c3ccnc(F)c3)cnc12)NC1CC1: 935

Could you now consider this next compound?
INPUT: State the recorded IC50 for this entry: "Cn1cc(-c2cnc3c(NC(=O)NC4CC(F)(F)C4)ccnc3c2)cn1"
OUTPUT: 784
